Cited source for all entries: paper doi:10.1101/2020.05.04.070177

system-name: TRIM25 CC-PRY/SPRY H505E/K508E (UniProt Q14258 189-630, H505E;K508E)
Sequence (Q14258 189-630 H505E/K508E): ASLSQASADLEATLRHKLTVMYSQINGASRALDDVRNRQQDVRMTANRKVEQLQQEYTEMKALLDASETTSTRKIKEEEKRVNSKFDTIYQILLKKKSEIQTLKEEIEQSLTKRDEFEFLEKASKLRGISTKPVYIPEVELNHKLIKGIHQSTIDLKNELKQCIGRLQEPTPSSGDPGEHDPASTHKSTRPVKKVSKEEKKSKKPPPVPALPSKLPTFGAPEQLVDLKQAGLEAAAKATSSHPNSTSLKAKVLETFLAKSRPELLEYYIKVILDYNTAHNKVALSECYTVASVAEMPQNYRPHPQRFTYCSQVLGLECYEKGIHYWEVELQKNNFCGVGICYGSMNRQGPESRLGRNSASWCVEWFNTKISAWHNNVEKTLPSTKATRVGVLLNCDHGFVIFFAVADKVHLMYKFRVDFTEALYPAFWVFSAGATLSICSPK
procedure-summary: ITC; first of two fitted sites; ITC and filter binding: 20 mM MES pH 6.5, 75 mM NaCl, 0.5 mM TCEP (ITC 20 C, filter binding on ice); NMR: 20 mM Na phosphate pH 6.5, 150 mM NaCl, 2 mM TCEP, 293 K
experimental-context: protein: recombinant; tags: His-Trx (removed); chain copies: 2; hairpin
readout-name: pKd
In plain terms, pKd is the concentration in mol/L turned into minus its base-10 logarithm.

Kindly note the recorded pKd for GUAUAGUUUAAAAGGAGAUAACUAUAC (structured_RNA) [pre-let-7a-1@2] , which is 6.32
